Reported pEC50 by item:
test_target: GLP1R (Homo sapiens)
Sequence (P43220 24-463): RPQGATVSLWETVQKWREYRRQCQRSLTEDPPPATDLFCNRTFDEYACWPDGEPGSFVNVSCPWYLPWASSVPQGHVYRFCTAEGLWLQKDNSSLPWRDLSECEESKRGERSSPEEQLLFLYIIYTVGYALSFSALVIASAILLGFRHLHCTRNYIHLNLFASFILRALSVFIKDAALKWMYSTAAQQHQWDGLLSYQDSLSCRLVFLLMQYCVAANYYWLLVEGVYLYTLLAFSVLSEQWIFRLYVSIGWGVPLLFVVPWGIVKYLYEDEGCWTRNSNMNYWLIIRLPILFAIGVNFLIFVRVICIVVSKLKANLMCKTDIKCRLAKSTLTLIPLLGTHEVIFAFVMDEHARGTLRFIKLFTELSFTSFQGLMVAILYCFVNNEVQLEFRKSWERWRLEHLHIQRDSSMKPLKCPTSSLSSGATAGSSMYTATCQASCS
test_protocol: GLP1R cAMP HTRF assay, HEK293/GLP-1R/CRE/Luc (HEK293T cells)
Type: cell-based
cond: read-out: EC50
pEC50: −log10 of the molar value.

Some entries whose results are on file:
- molecular_string: "N#Cc1ccc(COc2ncc(F)c(C3=CCN(Cc4nc5ccc(C(=O)O)cc5n4C[C@@H]4CCO4)CC3)n2)c(F)c1"
  test_target: "GLP1R (Homo sapiens)"
  result: "≥ 7.82"
- molecular_string: "N#Cc1ccc(COc2cccc(C3=CCN(Cc4nc5ccc(C(=O)O)cc5n4C[C@@H]4CCO4)CC3)n2)c(F)c1"
  test_target: "GLP1R (Homo sapiens)"
  result: "≥ 7.82"
- molecular_string: "O=C(O)c1ccc2nc(CN3CCN(c4ccnc(OCc5ccc(Cl)cc5F)n4)CC3)n(C[C@@H]3CCO3)c2c1"
  test_target: "GLP1R (Homo sapiens)"
  result: "≥ 7.82"
- molecular_string: "N#Cc1ccc(COc2cccc(N3CC=C(Cc4nc5ccc(C(=O)O)cc5n4C[C@@H]4CCO4)CC3)n2)c(F)c1"
  test_target: "GLP1R (Homo sapiens)"
  result: "≥ 6.82"
- molecular_string: "O=C(O)c1ccc2nc(CN3CC=C(c4cccc(OCc5cnccn5)n4)CC3)n(C[C@@H]3CCO3)c2c1"
  test_target: "GLP1R (Homo sapiens)"
  result: "≥ 6.00"
- molecular_string: "O=C(O)c1ccc2nc(CN3CC=C(c4cc5cn[nH]c5c(OCc5ccc(Cl)cc5F)n4)CC3)n(C[C@@H]3CCO3)c2c1"
  test_target: "GLP1R (Homo sapiens)"
  result: "≥ 6.82"
- molecular_string: "O=C(O)c1ccc2nc(CN3CC=C(c4cccc(OCc5cccnc5)n4)CC3)n(C[C@@H]3CCO3)c2c1"
  test_target: "GLP1R (Homo sapiens)"
  result: "≥ 6.82"
- molecular_string: "N#Cc1ccc(COc2ccc(F)c(C3=CCN(Cc4nc5ccc(C(=O)O)cc5n4C[C@@H]4CCO4)CC3)c2)c(F)c1"
  test_target: "GLP1R (Homo sapiens)"
  result: "≥ 7.82"

Please fill in: pEC50 reported for O=C(O)c1ccc2nc(CN3CCN(c4cccc(OCc5ccc(C(F)(F)F)cc5)c4)CC3)n(C[C@@H]3CCO3)c2c1 = ≥ 6.82

Please fill in: pEC50 reported for O=C(O)c1ccc2nc(CN3CC=C(c4cccc(OCc5ccc6c(c5)OCO6)n4)CC3)n(C[C@@H]3CCO3)c2c1 = ≥ 7.82

Please fill in: pEC50 reported for O=C(O)c1ccc2nc(CN3CCN(c4cc5ccccc5c(OCc5ccc(Cl)cc5F)n4)CC3)n(C[C@@H]3CCO3)c2c1 = ≥ 6.00

Please fill in: pEC50 reported for O=C(O)c1ccc2nc(CN3CC=C(c4nc(OCc5ccc(C#CC6CC6)cc5F)ncc4F)CC3)n(C[C@@H]3CCO3)c2c1 = ≥ 7.82

Please fill in: pEC50 reported for O=C(O)c1ccc2nc(CN3CC=C(c4cccc(OCc5ccccc5C(F)(F)F)n4)CC3)n(C[C@@H]3CCO3)c2c1 = ≥ 6.82

Please fill in: pEC50 reported for O=C(O)c1ccc2nc(CN3CC=C(c4cccc(OCc5ccc(-n6ccnn6)cc5)n4)CC3)n(C[C@@H]3CCO3)c2c1 = ≥ 7.82

Please fill in: pEC50 reported for O=C(O)c1ccc2nc(CN3CC=C(c4ccnc(OCc5ccc(Cl)cc5F)c4)CC3)n(C[C@@H]3CCO3)c2c1 = ≥ 6.00

Please fill in: pEC50 reported for O=C(O)c1ccc2nc(CN3CC=C(c4ccc(=O)n(CCc5ccc(Cl)cc5F)n4)CC3)n(C[C@@H]3CCO3)c2c1 = ≥ 6.00

Please fill in: pEC50 reported for O=C(O)c1ccc2nc(CN3CCN(c4ccc(=O)n(CCc5ccc(Cl)cc5F)n4)CC3)n(C[C@@H]3CCO3)c2c1 = < 6.00

Please fill in: pEC50 reported for O=C(O)c1ccc2nc(CN3CCC(N4CCc5ccc(-c6ccc(Cl)cc6F)cc5C4=O)CC3)n(C[C@@H]3CCO3)c2c1 = < 6.00

Please fill in: pEC50 reported for N#CC1(c2cccc(OCc3ccc(Cl)cc3F)n2)CCN(Cc2nc3ccc(C(=O)O)cc3n2C[C@@H]2CCO2)CC1 = < 6.00

Please fill in: pEC50 reported for N#Cc1ccc(COc2nccc(N3CCN(Cc4nc5ccc(C(=O)O)cc5n4C[C@@H]4CCO4)CC3)n2)c(F)c1 = ≥ 6.82

Please fill in: pEC50 reported for CN(Cc1ccc(Cl)cc1F)c1cccc(N2CCN(Cc3nc4ccc(C(=O)O)cc4n3C[C@@H]3CCO3)CC2)n1 = < 6.00

Please fill in: pEC50 reported for N#Cc1ccc(COc2cccc(N3CCC(Cc4nc5ccc(C(=O)O)nc5n4C[C@@H]4CCO4)CC3)n2)nc1 = ≥ 6.82
